- experimental-target: human glucocorticoid receptor-α [GRX] isoform (Homo sapiens)
- Construct: host or cells: insect SF21 cells (baculovirus)
- Sequence (P04150 whole entry, canonical isoform): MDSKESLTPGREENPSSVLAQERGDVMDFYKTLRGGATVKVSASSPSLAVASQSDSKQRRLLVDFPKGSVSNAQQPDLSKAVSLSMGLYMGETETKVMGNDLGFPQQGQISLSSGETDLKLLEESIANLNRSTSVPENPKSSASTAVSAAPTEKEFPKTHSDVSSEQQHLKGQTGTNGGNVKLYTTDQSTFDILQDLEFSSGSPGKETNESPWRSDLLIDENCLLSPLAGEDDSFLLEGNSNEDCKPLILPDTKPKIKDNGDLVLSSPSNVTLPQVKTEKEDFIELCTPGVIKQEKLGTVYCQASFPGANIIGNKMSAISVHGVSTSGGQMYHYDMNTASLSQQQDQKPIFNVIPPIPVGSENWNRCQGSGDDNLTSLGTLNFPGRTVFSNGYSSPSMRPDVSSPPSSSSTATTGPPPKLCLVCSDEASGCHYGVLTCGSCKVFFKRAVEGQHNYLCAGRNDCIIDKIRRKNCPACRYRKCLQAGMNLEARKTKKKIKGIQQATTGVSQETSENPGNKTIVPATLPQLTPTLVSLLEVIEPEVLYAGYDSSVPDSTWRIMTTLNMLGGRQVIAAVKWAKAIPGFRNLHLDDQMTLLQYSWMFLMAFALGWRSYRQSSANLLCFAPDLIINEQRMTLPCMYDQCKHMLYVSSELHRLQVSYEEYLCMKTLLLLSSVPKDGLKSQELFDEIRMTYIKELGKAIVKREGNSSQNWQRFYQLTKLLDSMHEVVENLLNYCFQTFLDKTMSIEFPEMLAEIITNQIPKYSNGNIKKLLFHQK
- measurement-protocol: Radioligand binding with human glucocorticoid receptor cytosol ([3H]-dexamethasone competition)
- experimental-setup: GRX cytosol expressed in insect SF21 cells, [3H]-Dex ~0.9 nM, 4° C. overnight; Ki by Cheng-Prusoff, KL ~[…]; read-out: Ki (nM) GR
value-type: Ki (nM)
The reply should be a number in nM, with the unit left off.

# compound, Ki (nM)
measured = [
    ("COc1cccc2c1-c1ccc3c(c1C(c1cccc(OC(=O)N4CCOCC4)c1)O2)C(C)=CC(C)(C)N3 (centres unmarked) [Example 100]", 7.8),
]

Request: Please report Ki for the following compound: COc1c(OC(=O)CCC(=O)N(C)C)ccc2c1-c1ccc3c(c1C(Cc1ccccc1)O2)C(C)=CC(C)(C)N3 (centres unmarked) [Example 424]
Response: 0.84

Request: # return recorded Ki for entry COc1cccc2c1-c1ccc3c(c1C(c1cccc(C(F)(F)F)c1)O2)C(C)=CC(C)(C)N3 (centres unmarked) [Example 21]
Response: 10.7
